# Test system: UACC-257 melanoma
# test-details: NCI tumour cell line growth inhibition, 48 h
endpoint: TGI

Cc1cc(C)c(NC(=O)c2sc3nc4c(cc3c2N)CN(Cc2ccccc2)CC4)c(C)c1 ... > 100 µM

Ask: Tell me its TGI given O=C(c1cccs1)N(C(=O)N1CCN(c2ccccc2)CC1)S(=O)(=O)c1ccccc1 as the entry.
Result: 69.9 µM

Ask: Provide TGI value for the following compound: CSc1ccc2c(c1)C(=O)c1c-2n(CCCBr)c(=O)c2cc([N+](=O)[O-])ccc12
Result: > 100 µM

Ask: Entry CC(C(=O)OCc1ccccc1)(c1ccco1)N1C(=O)OC(c2ccccc2)C1c1ccccc1 (stereo not given) needs its TGI filled in; supply it.
Result: > 100 µM

Ask: Please give the documented TGI of CC1=NC(=Cc2cc(Br)cc(Br)c2)C(=O)N1n1c(-c2ccccc2)nc2ccccc2c1=O
Result: > 100 µM
